Attribution: patent US12077503B2

Quick reference: Plant response rating, Barnyardgrass of the listed items.
System: barnyardgrass (Echinochloa crus-galli)
measurement_description: Test A preemergence
Format: in vivo
reported_conditions: 500 g ai/ha, preemergence; 0 to 100 scale, 0 = no effect, 100 = complete control

Data point: Cc1ccc(C2CNC(=O)C2C(=O)Nc2ccc(F)cc2F)cc1C(F)(F)F (racemic) ; Plant response rating, Barnyardgrass = 90

* * *

System: barnyardgrass (Echinochloa crus-galli)
measurement_description: Test A preemergence
Type: in vivo
reported_conditions: Echinochloa crus-galli, pre-emergence, 240 h, 125 g ai/ha, Preemergence, visual injury rating after approximately 10 d; read-out: Barnyardgrass plant response rating (0 to 100 scale, 0 is no effect, 100 is complete control)
Quick reference: pest or weed control at 125 g/ha of the listed items.
Write the answer as a number in %, unit excluded.

// solved cases for pest or weed control at 125 g/ha follow
> print(dat)
                                   compound  recorded.number
1  CN1CC[C@H](c2ccc(OC(F)(F)F)cc2)[C@@H](C(=O)Nc2cccc(F)c2F)C1=O               70
2  Cc1cc([C@H]2CN(C)C(=O)[C@@H]2C(=O)Nc2ccccc2S(C)(=O)=O)ccc1Cl               90
3  COc1ccc([C@H]2CN(C)C(=O)[C@@H]2C(=O)Nc2ccccc2SC)cc1C(F)(F)F               70

Data point: Cc1ccncc1NC(=O)[C@H]1C(=O)N(C)C[C@@H]1c1ccc(C(F)(F)F)cc1 ; pest or weed control at 125 g/ha = 0

Data point: CN1C[C@H](c2cc(F)cc(Cl)c2)[C@@H](C(=O)Nc2ccccc2S(C)(=O)=O)C1=O ; pest or weed control at 125 g/ha = 90

* * *

Test system: blackgrass (Alopecurus myosuroides)
measurement_description: Test A postemergence
Format: in vivo
reported_conditions: Alopecurus myosuroides, post-emergence, 240 h, 125 g ai/ha, postemergence, visual injury rating after approximately 10 d; read-out: Blackgrass plant response rating (0 to 100 scale, 0 no effect, 100 complete control)
Quick reference: pest or weed control at 125 g/ha of the listed items.
Write the answer as a number in %, unit excluded.

> print(dat)
                                   compound                measured.attribute  measurement.units  recorded.number
1  Cc1cc(C)cc([C@H]2CN(C)C(=O)[C@@H]2C(=O)Nc2cccc(F)c2F)c1 [Compound 911]  pest or weed control at 125 g/ha                  %               50

Data point: CN1C[C@H](c2cc(F)c(F)c(F)c2)[C@@H](C(=O)Nc2ccccc2S(C)(=O)=O)C1=O [Compound 880] ; pest or weed control at 125 g/ha = 0

Data point: CCc1cc([C@H]2CNC(=O)[C@@H]2C(=O)Nc2ccccc2F)cs1 [Compound 913] ; pest or weed control at 125 g/ha = 0

Data point: COc1c(F)ccc([C@H]2CN(C)C(=O)[C@@H]2C(=O)Nc2ccccc2F)c1Cl [Compound 892] ; pest or weed control at 125 g/ha = 0

Data point: CN1C[C@H](c2cc(F)c(C(F)(F)F)c(F)c2)[C@@H](C(=O)Nc2ccccc2F)C1=O [Compound 899] ; pest or weed control at 125 g/ha = 40

Data point: CN1C[C@H](c2cc(F)cc(F)c2)[C@@H](C(=O)Nc2ccc(C(F)(F)F)cn2)C1=O [Compound 869] ; pest or weed control at 125 g/ha = 0

Data point: CN1C[C@H](c2cc(F)c(F)c(F)c2)[C@@H](C(=O)Nc2cccc(F)c2F)C1=O [Compound 879] ; pest or weed control at 125 g/ha = 70

Data point: COc1c(F)ccc([C@H]2CN(C)C(=O)[C@@H]2C(=O)Nc2ccc(F)c(F)c2F)c1Cl [Compound 895] ; pest or weed control at 125 g/ha = 60

Data point: CN1C[C@H](c2cccc(C3CC3)c2)[C@@H](C(=O)Nc2cccc(F)c2F)C1=O [Compound 816] ; pest or weed control at 125 g/ha = 60

Data point: COc1c(F)ccc([C@H]2CN(C)C(=O)[C@@H]2C(=O)Nc2ccccc2S(C)(=O)=O)c1Cl [Compound 897] ; pest or weed control at 125 g/ha = 30
